assay.method.text: qHTS assay for identifying genotoxic compounds that show differential cytotoxicity against isogenic chicken DT40 cell lines with known DNA damage response pathways - Rev3 mutant cell line (AID 743014); note: nearly all actives have a fitted effect of over 55% in size
experimental.conditions: chicken DT40 Rev3-/- viability, CellTiter-Glo, 40 h; series mostly up to 68.4 µM
Results filed as inconclusive are left out. Calls of active or inactive are those of the source. Calls come from the whole dose curve; as a rule, active = well fitted cell-killing curve with a large enough effect in the repeat runs; inconclusive = weak or mixed curves, or effect the other way; inactive = no such curve, though single readings can be large or run the other way.
Thanks in advance; please answer with one of these: 1.0 for active, 0.0 for inactive

Called result for "O=C1NC(=O)C(c2ccccc2)(c2ccccc2)N1"
0.0

Check the results log: what was the call for "Cc1cn([C@H]2C=C[C@@H](CO)O2)c(=O)[nH]c1=O" ?
0.0

# fetch the recorded call for "Nc1ccc([N+](=O)[O-])cc1O" here
1.0

# outcome recorded in this test, key = "O=C(O)c1ccccc1"
0.0

Recorded test outcome, item "CC1(C)O[C@@H]2C[C@H]3[C@@H]4CCC5=CC(=O)C=C[C@]5(C)[C@@]4(F)[C@@H](O)C[C@]3(C)[C@]2(C(=O)CO)O1"
0.0

Outcome logged for "CC(=O)C(=O)O" in this assay:
0.0

Which outcome did this test record for the molecule "CC12CCC(CC1)C(C)(C)O2" ?
0.0

Dear colleague, could you share the recorded outcome for "Cc1cccc(C)c1" when you have a moment?
0.0

Which outcome did this test record for the molecule CN(C)CCOC(C)(c1ccccc1)c1ccccn1 (stereo not given) ?
0.0

I would be grateful if you could indicate the recorded call for "Oc1ccccc1" .
0.0

How was "CN[C@H]1CC[C@@H](c2ccc(Cl)c(Cl)c2)c2ccccc21" classified in this test?
1.0

Assay outcome for "CN1CCC[C@H]1c1cccnc1" : what was it?
0.0

For "COc1ccc2c(c1)c(CC(=O)O)c(C)n2C(=O)c1ccc(Cl)cc1" , what call appears in the results of this test?
0.0

Look up the recorded call for "CC(=O)Nc1c(I)c(NC(C)=O)c(I)c(C(=O)O)c1I" in this test.
0.0

Record request — test call for "Cc1ncc([N+](=O)[O-])n1CCO"
0.0

Any idea what this test logged for "C/C=C/C=C/C(=O)O" ?
0.0

Could you please tell me the result logged for "Cc1cc(C)nc(NS(=O)(=O)c2ccc(N)cc2)n1" in this assay?
0.0

Fill in: this test's call for "F[B-](F)(F)F" is ___
0.0

Test call, this molecule: "NS(=O)(=O)c1cc2c(cc1Cl)NCNS2(=O)=O"
0.0

Assay outcome for "CCCCNC(=O)NS(=O)(=O)c1ccc(C)cc1" : what was it?
0.0

====

assay.method.text: qHTS assay to identify small molecule agonists of the estrogen receptor beta (ER-beta) signaling pathway - cell viability counter screen (AID 1259380); note: nearly all actives have a fitted effect of over 30% in size
experimental.conditions: ER-beta-bla HEK293T viability, CellTiter-Glo luminescence, 16 h; series mostly up to 92.4 µM
From the text: National Center for Advancing Translational Sciences [NCATS] NIH Chemical Genomics Center [NCGC] U.S. Environmental Protection Agency [EPA] National Institutes of Environmental Health Sciences [NIEHS] National Toxicology Program [NTP] U.S. Food and Drug Administration [FDA] Estrogen receptor (ER), a nuclear hormone receptor, plays an important role in development, metabolic homeostasis and reproduction. […]
Results filed as inconclusive are left out. Activity calls are given as the source filed them. Calls follow the shape of the dose curve; as a rule, active = well fitted cell-killing curve with a large enough effect in the repeat runs; inconclusive = weak or mixed curves, or effect the other way; inactive = flat fitted curve, though single readings scatter.
Please answer using one outcome listed in TRUE (active), FALSE (inactive)

Dear colleague, could you share the recorded outcome for "CN1CCC[C@H]1c1cccnc1" when you have a moment?
FALSE

Recorded call for "Nc1ccc2c(c1)CN1C(=O)c3ccccc3C1=N2" ?
TRUE

Assay outcome for "Oc1ccccc1" : what was it?
FALSE

Hi, sorry to bother you, what did the test record for "CCCCOC(=O)c1ccc(O)cc1" ?
FALSE

Please share the test call associated with "CC1(C)S[C@@H]2[C@H](NC(=O)[C@H](N)c3ccccc3)C(=O)N2[C@H]1C(=O)O" .
FALSE

Hi team, can someone confirm the assay call for "O=C1NS(=O)(=O)c2ccccc21" ?
FALSE

// return assay outcome for "Cc1cc(=O)oc2cc(O)ccc12"
FALSE

// return assay outcome for "O=C1O[C@H]([C@@H](O)CO)C(O)=C1O"
FALSE

====

assayed.target: Nuclear receptor ROR-gamma (Homo sapiens)
assay.method.text: qHTS assay to identify small molecule antagonists of the retinoid-related orphan receptor gamma (ROR-gamma) signaling pathway (AID 1159521;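 note: CHO cells with doxycycline inducible ROR-gamma driving an RORE luciferase reporter; top concentration of the series differs between compounds; nearly all actives have a fitted effect of over 50% in size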)
experimental.conditions: Tet-on RORgamma CHO cells, RORE-luciferase, 16 h; series mostly up to 92.4 µM
Results filed as inconclusive are left out. The source made the active and inactive calls. The call rests on the fitted dose curve; in most records, active means well fitted inhibition curve with a large enough effect in the repeat runs; inconclusive means weak or mixed curves, or effect the other way; inactive means no such curve, though single readings can be large or run the other way.
readout: outcome

Check out these entries, answers already filled in.
[[record]]
compound = "NS(=O)(=O)O"
data_value = "inactive"

[[record]]
compound = "C1=CC2C3C=CC(C3)C2C1 (configuration not stated)"
data_value = "inactive"

[[record]]
compound = "O=C1NS(=O)(=O)c2ccccc21"
data_value = "inactive"

[[record]]
compound = "O=C1O[C@H]([C@@H](O)CO)C(O)=C1O"
data_value = "inactive"

[[record]]
compound = "O=C(O)CC(O)C(=O)O (configuration not stated)"
data_value = "inactive"

[[record]]
compound = "CCCCC(CC)C(=O)O (configuration not stated)"
data_value = "inactive"


Assign outcome to the following record: "CN[C@H]1CC[C@@H](c2ccc(Cl)c(Cl)c2)c2ccccc21"
inactive

====

assay.method.text: qHTS RealTime-Glo MT Cell Viability Assay in HEK293 cells - 8 hour (AID 1224887); note: nearly all actives have a fitted effect of over 50% in size
experimental.conditions: RealTime-Glo luminescence; series mostly up to 76.8 µM
Inconclusive results are not listed. Activity calls are given as the source filed them. Calls follow the shape of the dose curve; as a rule, active = well fitted cell-killing curve with a large enough effect in the repeat runs; inconclusive = weak or mixed curves, or effect the other way; inactive = flat fitted curve, though single readings scatter.
Give your call using only these classes: active, inactive

What outcome does the record of this test show for "CCOC(N)=O" ?
inactive

Given "CNNCc1ccc(C(=O)NC(C)C)cc1" , state the outcome it received in this test.
inactive

Returns: the outcome recorded for "CN(C)CCOC(c1ccccc1)c1ccccc1" in this assay.
inactive

Recorded test call requested for "Cc1cccc(C)c1"
inactive

What did this assay record as the result for "Cc1ncc([N+](=O)[O-])n1C" ?
inactive

Dear all, I need the recorded test outcome for "NC(=O)c1cccnc1" , thank you.
inactive

Hi, do you know how O=C(O)CC(O)C(=O)O (stereo not drawn) came out in this test?
inactive

What is the recorded call for this compound in the test? CC(C)NCC(O)c1ccc(O)c(O)c1 (stereo not drawn)
inactive

Assay result, entry C1CCC(C(CC2CCCCN2)C2CCCCC2)CC1 (stereo not drawn) — outcome?
active

Kindly provide the recorded test outcome for the following compound: "O=c1[nH]cnc2c1ncn2[C@H]1CC[C@@H](CO)O1"
inactive

Record lookup: outcome of this test for "Cc1cc(=O)oc2cc(O)ccc12" ?
inactive

Per the assay record, what outcome was assigned to CN1[C@@H]2CC(OC(=O)[C@H](CO)c3ccccc3)C[C@H]1[C@@H]1O[C@@H]12 (stereo partly drawn) ?
inactive

I would be grateful if you could indicate the recorded call for CCCCC(CC)C(=O)O (stereo not drawn) .
inactive

Any idea what this test logged for "CCc1nc(N)nc(N)c1-c1ccc(Cl)cc1" ?
inactive

What did this assay record as the result for "O=C(Nc1ncc([N+](=O)[O-])s1)c1cccs1" ?
inactive

Hello, I am checking results. What call was entered for "COc1ccc2cc(S(=O)(=O)N[C@H](CC(=O)N[C@H](Cc3ccc(CN4[C@H](C)CCC[C@@H]4C)cc3)C(=O)N(C)C(C)C)c3ccc4c(c3)OCO4)ccc2c1" ?
active

Please let me know the test result on file for "CCOc1ccc(NC(C)=O)cc1" .
inactive

What did the test return for "C=C1CC[C@H](O)C/C1=C\C=C1/CCC[C@]2(C)[C@@H]([C@H](C)CCCC(C)C)CC[C@@H]12" ?
active

What classification did CN(C)CCOC(C)(c1ccccc1)c1ccccn1 (stereo not drawn) end up with in this test?
inactive

Write down the call the test reported for this compound. Item: "CC(O)(P(=O)(O)O)P(=O)(O)O"
inactive

Look up the recorded call for "CC/C(=C(\c1ccccc1)c1ccc(OCCN(C)C)cc1)c1ccccc1" in this test.
active

GET /call?item= "CCCCCCCC(=O)OCC(COC(=O)CCCCCCC)OC(=O)CCCCCCC" returns the recorded outcome of this test.
inactive

Could you check what this test reported for "O=CC(=O)c1ccccc1" ?
inactive

====

assayed.target: Aryl hydrocarbon receptor (Homo sapiens)
assay.method.text: qHTS assay to identify small molecule that activate the aryl hydrocarbon receptor (AhR) signaling pathway (AID 743085); note: nearly all actives have a fitted effect of over 15% in size;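 for activation: HG2L7.5c1 human HepG2 liver cells with stably integrated DRE-driven firefly reporter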
experimental.conditions: HepG2 AhR-luc (HG2L7.5c1), luciferase, 24 h; series mostly up to 70.3 µM
Records with an inconclusive call do not appear. Active and inactive are the calls of the source. The call rests on the fitted dose curve; in most records, active means well fitted activation curve with a large enough effect in the repeat runs; inconclusive means weak or mixed curves; inactive means no such curve, though single readings can be large or run the other way.
Reply using exactly one outcome from active, inactive

What outcome does the record of this test show for "Cc1c(C(=O)O)c(O)cc2c1C(=O)c1c(O)c([C@@H]3O[C@H](CO)[C@@H](O)[C@H](O)[C@H]3O)c(O)c(O)c1C2=O" ?
inactive

Please indicate how the test categorized "NC(=O)n1c(O)c(C(=O)c2cccs2)c2cc(Cl)ccc21" .
active

Hey, what did the test say about "CCCCNC(=O)NS(=O)(=O)c1ccc(C)cc1" ?
inactive

Field: outcome | Entry: "CCCCCCCCCCCCCCCC[N+](C)(C)Cc1ccccc1"
inactive

Which result was noted for this compound in the test: "CNNCc1ccc(C(=O)NC(C)C)cc1"
inactive

Status in this test for "CC12CCC(CC1)C(C)(C)O2" ?
inactive

What call does the record list for "O=C1c2c(O)cccc2Cc2cccc(O)c21" ?
inactive

Could you please tell me the result logged for "Cc1ncc([N+](=O)[O-])n1C" in this assay?
inactive

Hello, I am checking results. What call was entered for "O=c1[nH]cnc2c1ncn2[C@H]1CC[C@@H](CO)O1" ?
inactive

What did the test return for "CCN(Cc1c(F)cccc1Cl)c1c([N+](=O)[O-])cc(C(F)(F)F)cc1[N+](=O)[O-]" ?
inactive

Answer briefly: the call reported for "Nc1ccc([N+](=O)[O-])cc1O" in this assay.
active

In this assay, the call recorded for "Nc1ccc(O)c([N+](=O)[O-])c1" was what?
active

Field: outcome | Entry: C1CCC(C(CC2CCCCN2)C2CCCCC2)CC1 (stereo not given)
inactive

Outcome logged for "CCCc1cc(=O)[nH]c(=S)[nH]1" in this assay:
inactive

Field: outcome | Entry: "Cc1cccc(C)c1"
inactive

Outcome? "OC[C@H]1O[C@H](O[C@]2(CCl)O[C@H](CCl)[C@@H](O)[C@@H]2O)[C@H](O)[C@@H](O)[C@H]1Cl"
inactive

Hi team, can someone confirm the assay call for "NC(=O)c1cccnc1" ?
inactive

Outcome logged for "Oc1ccccc1" in this assay:
inactive

Could you please tell me the result logged for "O=C(Nc1ncc([N+](=O)[O-])s1)c1cccs1" in this assay?
active

Outcome logged for "CC1(C)S[C@@H]2[C@H](NC(=O)[C@H](N)c3ccccc3)C(=O)N2[C@H]1C(=O)O" in this assay:
inactive

Look up the recorded call for "O=S1(=O)OC(c2ccc(O)cc2)(c2ccc(O)cc2)c2ccccc21" in this test.
inactive

Returns: the outcome recorded for "CCCCC1(COC(=O)CCC(=O)O)C(=O)N(c2ccccc2)N(c2ccccc2)C1=O" in this assay.
inactive

Hello, I am checking results. What call was entered for "CC(=O)C(=O)O" ?
inactive

Please state the recorded outcome for this compound: "COc1ccc(CN(CCN(C)C)c2ccccn2)cc1"
inactive

Lab log entry: "O=CC(=O)c1ccccc1" — outcome as called in the assay?
inactive
